B1: tRNA (parent)
chain: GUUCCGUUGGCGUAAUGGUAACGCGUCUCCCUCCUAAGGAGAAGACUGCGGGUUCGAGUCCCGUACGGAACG

Variants of: B1
Assay: yeast fitness relative to wild type (ratio to wild type); higher = fitter; tRNA-Arg(CCU), competitive growth, 37 C, YPD
Fewer inactive variants are shown than the library holds.
Below is a list of entries, each paired with its recorded yeast fitness value.
measured_metric: yeast fitness

> print(dat)
             variant.description  qualifier  numeric.value
 1      U16C U26A G38C U47A C49A          ≤            0.5
 2  G9C A14C A20U G23C C31U C55U          ≤            0.5
 3                C11G A15U A36U          ≤            0.5
 4                 C4U C34G G52U          =           0.62
 5                      G9C C27U          =          0.621
 6                      C5A C55G          =          0.618
 7                C29U A36G U54C          =          0.542
 8                C22G A45G C46U          =          0.644
 9                A36C A40G C46U          =          0.569
10                C46A C62U A69C          =           0.69
11                C49U A57U U59C          =          0.536
12                      C5A G52A          =          0.641
13                A15G A20G C31U          =           0.59
14                U16C U54A C66U          ≤            0.5
15                     U32G A42C          =           0.62
16                     G25U A65U          =           1.02
17                 U2G C49U C62U          =          0.565
18            G9A C29A A42C C55U          ≤            0.5
19      A15G G25A U32G A40G C60G          =          0.501
20                     U13A U53A          =           0.59
21                      C5A G39A          =           0.83
22                A14C A15G A42G          =          0.738
